Give measured PBM binding z-score for each item. Keep answers brief.
Tested on: RXRa homodimer (NR concentration 180 nM)
procedure summary: PBM binding z-score (relative to random genomic background probes); higher = stronger binding; sequences stand for … in GC…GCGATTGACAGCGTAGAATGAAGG
One number for each entry.

CTCGCAAGGTCGTGCTCAGGTGAGTATACCAAAC	2.52
TCTTGTAGATCAACAGGAGGTAAAGAAAGATCGA	0.423

List reported PBM binding z-score for each of these sequences:
1. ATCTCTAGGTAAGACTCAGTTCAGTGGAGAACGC
2. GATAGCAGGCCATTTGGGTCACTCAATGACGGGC
3. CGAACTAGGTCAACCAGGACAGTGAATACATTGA
4. CCAGACGGGTGAAAGGTAACTCAGTCTGGTACGC

Reply:
[0.0842, 0.841, 2.99, 1.81]

----------
Tested on: VDR:RXRa (NR concentration 270 nM, RXRa partner concentration 90 nM)
procedure summary: PBM binding z-score (relative to random genomic background probes); higher = stronger binding; sequences stand for … in GC…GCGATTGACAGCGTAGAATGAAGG
experimental readout: PBM binding z-score
Give bare numbers.

GCTTACGGGTCAAAGATTATAGCATGAATAGAAT	3.28
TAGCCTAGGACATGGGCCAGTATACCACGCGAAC	-0.512
GCTCCTAGGTCAACTGATGGTCAGCTAAAGCTCG	2.29
CCTCGGGGGACAGAAGGTCAGAGCTGTCCGCTTT	2.3

List reported PBM binding z-score for each of these sequences:
1. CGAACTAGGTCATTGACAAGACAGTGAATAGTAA
2. TTACCAAGGTGAAGGTCCTTGATCCCTCTGTAGA
3. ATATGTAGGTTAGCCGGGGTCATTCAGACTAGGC
4. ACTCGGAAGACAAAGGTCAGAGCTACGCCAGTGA
5. CCTAGTTGGTCCGGAGGTCACACACCGGATATGA
6. ACTATTAGTTGACTTAGGCCAACCGATACGACGC

Reply:
1.89
0.388
6.67
2.63
3.77
0.432

List reported PBM binding z-score for each of these sequences:
1. GTACCAAGGTGAATAGGTCGTGGATGAGTAGGCG
2. GCATATAGGTAATACAAGGGGAAAGTCCGATTGT
3. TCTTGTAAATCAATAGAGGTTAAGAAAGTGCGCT
4. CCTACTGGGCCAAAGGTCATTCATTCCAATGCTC
5. AGTATGAGGTTACCAAAGATCAGGGAAACGCTTG

Reply:
1. 0.918
2. -0.0932
3. 1.98
4. 4.67
5. 1.41

List reported PBM binding z-score for each of these sequences:
1. CGAACTAGGTCAGAACAGGACAGAGAAGGATGAT
2. CGAACGAGGGCATGAGTTGACAGCAAATGCCGAT

Reply:
1. 0.496
2. 1.2

----------
Test system: VDR homodimer (NR concentration 270 nM)
procedure summary: PBM binding z-score (relative to random genomic background probes); higher = stronger binding; sequences stand for … in GC…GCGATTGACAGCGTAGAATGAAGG
experimental readout: PBM binding z-score
Numbers only.

Look over these answered cases.
CCGACCGGGGCAGAAAGGTTACCATACCATCCGG	0.0914
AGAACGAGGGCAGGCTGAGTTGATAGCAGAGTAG	0.453
TTACCAAGGTGAAGGTCGTTGATCCCTCTGTAGA	1.15

List reported PBM binding z-score for each of these sequences:
1. CCTACTGGGCCACGACAGGTCATTGATTCAGTGA
2. GCTATTAGTTGAAAGGGCAACCGTATGATTCTCG
3. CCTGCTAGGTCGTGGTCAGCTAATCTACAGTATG

Reply:
0.706
0.306
-0.0912
